Exercise: state measured pIC50 for each of the compounds provided.
Tested on: RAW264.7
method_summary: Anti-inflammatory activity in mouse RAW264.7 cells assessed as inhibition of LPS-induced NO production incubated for 3 hrs followed by LPS addition and measured after 24 hrs
Format: functional, cell-based
pIC50: −log10 of the molar value.

(Q) Please look up its pIC50: C=C1CC[C@H]2[C@@H](/C=C(\C)C(=O)[C@@]3(O)C[C@H](C)[C@H](O)[C@@H]3[C@H]1OCc1cn(CCCC(=O)N[C@H](Cc3ccccc3)[C@H](O)C(=O)N[C@@H](CC(C)C)C(=O)OC)nn1)C2(C)C
(A) < 4.70

(Q) Please look up its pIC50: C=C1CC[C@H]2[C@@H](/C=C(\C)C(=O)[C@@]3(O)C[C@H](C)[C@H](O)[C@@H]3[C@H]1OCc1cn(CCCCCC(=O)N[C@H](C(=O)N3C[C@H](O)C[C@H]3C(=O)NCc3ccc(-c4scnc4C)cc3)C(C)(C)C)nn1)C2(C)C
(A) < 4.70

(Q) Please look up its pIC50: C=C1CC[C@H]2[C@@H](/C=C(\C)C(=O)[C@@]3(O)C[C@H](C)[C@H](O)[C@@H]3[C@H]1OCc1cn(CCOCCOCCOCCNC(=O)[C@H](CC(C)C)NC(=O)[C@@H](O)[C@@H](Cc3ccccc3)NC(=O)OC(C)(C)C)nn1)C2(C)C
(A) < 4.70

(Q) Please look up its pIC50: C=C1CC[C@H]2[C@@H](/C=C(\C)C(=O)[C@@]3(O)C[C@H](C)[C@H](O)[C@@H]3[C@H]1OCc1cn(CCOCCOCCOCCNC(=O)CN3CCN(C(=O)N4C(c5ccc(OC)cc5OC(C)C)=N[C@H](c5ccc(Cl)cc5)[C@@H]4c4ccc(Cl)cc4)CC3=O)nn1)C2(C)C
(A) < 4.70

(Q) Please look up its pIC50: C=C1CC[C@H]2[C@@H](/C=C(\C)C(=O)[C@@]3(O)C[C@H](C)[C@H](O)[C@@H]3[C@H]1OCc1cn(CCCC(=O)N[C@H](C(=O)N3C[C@H](O)C[C@H]3C(=O)N[C@H](C)c3ccc(-c4scnc4C)cc3)C(C)(C)C)nn1)C2(C)C
(A) < 4.70

(Q) Please look up its pIC50: C=C1CC[C@H]2[C@@H](/C=C(\C)C(=O)[C@@]3(O)C[C@H](C)[C@H](O)[C@@H]3[C@H]1OCc1cn(CC(=O)N[C@H](C(=O)N3C[C@H](O)C[C@H]3C(=O)N[C@H](C)c3ccc(-c4scnc4C)cc3)C(C)(C)C)nn1)C2(C)C
(A) < 4.70

(Q) Please look up its pIC50: C=C1CC[C@H]2[C@@H](/C=C(\C)C(=O)[C@@]3(O)C[C@H](C)[C@H](O)[C@@H]3[C@H]1OCc1cn(CCOCCOCCOCCOCCNC(=O)CN3CCN(C(=O)N4C(c5ccc(OC)cc5OC(C)C)=N[C@H](c5ccc(Cl)cc5)[C@@H]4c4ccc(Cl)cc4)CC3=O)nn1)C2(C)C
(A) < 4.70

(Q) Please look up its pIC50: C=C1CC[C@H]2[C@@H](/C=C(\C)C(=O)[C@@]3(O)C[C@H](C)[C@H](O)[C@@H]3[C@H]1OCc1cn(CCOCCOCCNC(=O)[C@H](CC(C)C)NC(=O)[C@@H](O)[C@@H](Cc3ccccc3)NC(=O)OC(C)(C)C)nn1)C2(C)C
(A) 5.28

(Q) Please look up its pIC50: C=C1CC[C@H]2[C@@H](/C=C(\C)C(=O)[C@@]3(O)C[C@H](C)[C@H](O)[C@@H]3[C@H]1OCc1cn(CC(=O)N[C@H](C(=O)N3C[C@H](O)C[C@H]3C(=O)NCc3ccc(-c4scnc4C)cc3)C(C)(C)C)nn1)C2(C)C
(A) < 4.70

(Q) Please look up its pIC50: C=C1CC[C@H]2[C@@H](/C=C(\C)C(=O)[C@@]3(O)C[C@H](C)[C@H](O)[C@@H]3[C@H]1OCc1cn(CCCCCC(=O)N[C@H](Cc3ccccc3)[C@H](O)C(=O)N[C@@H](CC(C)C)C(=O)OC)nn1)C2(C)C
(A) < 4.70

(Q) Please look up its pIC50: C=C1CC[C@H]2[C@@H](/C=C(\C)C(=O)[C@@]3(O)C[C@H](C)[C@H](O)[C@@H]3[C@H]1OCc1cn(CCOCCOCCOCCOCCNC(=O)[C@H](CC(C)C)NC(=O)[C@@H](O)[C@@H](Cc3ccccc3)NC(=O)OC(C)(C)C)nn1)C2(C)C
(A) < 4.70

(Q) Please look up its pIC50: C=C1CC[C@H]2[C@@H](/C=C(\C)C(=O)[C@@]3(O)C[C@H](C)[C@H](O)[C@@H]3[C@H]1OCc1cn(CCCCCC(=O)N[C@H](C(=O)N3C[C@H](O)C[C@H]3C(=O)N[C@H](C)c3ccc(-c4scnc4C)cc3)C(C)(C)C)nn1)C2(C)C
(A) < 4.70

(Q) Please look up its pIC50: C=C1CC[C@H]2[C@@H](/C=C(\C)C(=O)[C@@]3(O)C[C@H](C)[C@H](O)[C@@H]3[C@H]1OCc1cn(CCOCCOCCNC(=O)CN3CCN(C(=O)N4C(c5ccc(OC)cc5OC(C)C)=N[C@H](c5ccc(Cl)cc5)[C@@H]4c4ccc(Cl)cc4)CC3=O)nn1)C2(C)C
(A) < 4.70

(Q) Please look up its pIC50: C=C1CC[C@H]2[C@@H](/C=C(\C)C(=O)[C@@]3(O)C[C@H](C)[C@H](O)[C@@H]3[C@H]1OCc1cn(CC(=O)N[C@H](Cc3ccccc3)[C@H](O)C(=O)N[C@@H](CC(C)C)C(=O)OC)nn1)C2(C)C
(A) < 4.70

(Q) Please look up its pIC50: C=C1CC[C@H]2[C@@H](/C=C(\C)C(=O)[C@@]3(O)C[C@H](C)[C@H](O)[C@@H]3[C@H]1OCc1cn(CCCC(=O)N[C@H](C(=O)N3C[C@H](O)C[C@H]3C(=O)NCc3ccc(-c4scnc4C)cc3)C(C)(C)C)nn1)C2(C)C
(A) < 4.70
